Experiment: binders from COS7 lysate, DM2A8 probe, primary screen, torsin A project, cell lysate, small-molecule microarray, fluorescence 635/667 (AID 1065)
Conditions: higher = more signal, COS7 lysate expressing mutant human TOR1A
As shown below, each of these compounds has a reported composite z-score value.
Would you mind answering with just the numeric figure?

Field: example entries. Status: answers known.
COMPOUND	OBSERVED MEASUREMENT
CCOC(=O)[C@H](Cc1ccccc1)NC(=O)CCC1CC(OC(=O)NCc2cccc3ccccc23)CC2(CCCC(COC(=O)NCC(c3ccccc3)c3ccccc3)O2)O1 (some centres not stated)	0.578
CCN1C(=O)[C@H]2[C@H]3[C@H](O)[C@H](O)CC(=O)[C@@H]3CC[C@H]2C1=O	0.0277
CCOC(=O)[C@H](Cc1ccccc1)NC(=O)CCC1CC(OC(=O)NCCc2ccc(F)cc2)CC2(CCCC(COC(=O)NCCc3ccc(Cl)cc3)O2)O1 (some centres not stated)	-0.0057

Briefly, composite z-score measured for `C#CCCCON=C1[C@H]2CCn3c(=O)n(C)c(=O)n3[C@H]2[C@H](O)[C@@H]2O[C@H]12` : 0.588

Briefly, composite z-score measured for `COC(=O)CC=C[C@H](C)[C@@H](OCc1cccc(Br)c1)[C@@H](C)[C@H](OC)C1CCCCC1` : 0.451

Briefly, composite z-score measured for `Cc1ccc(S(=O)(=O)n2c3ccccc3c3nnc(C(=O)c4ccccc4)nc32)cc1` : 0.338

Briefly, composite z-score measured for CCOC(=O)[C@H](Cc1ccccc1)NC(=O)CCC1CC(OC(=O)NCc2ccc3c(c2)OCO3)CC2(CCCC(COC(=O)NCCc3ccccc3OC)O2)O1 (some centres not stated) : 0.058

* * *

Experiment: fission yeast growth modulation, primary screen, strain 972, OD600, 24 h, no modulator (AID 1090);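 also: basal condition with compound alone and no growth modifier present; test concentration not given here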
Conditions: S. pombe 972 growth, higher = more signal, called active from +8 up or from −8 down
As shown below, each of these molecules has a reported z-score value.
Would you mind answering with just the numeric figure?

Field: example entries. Status: answers known.
MOLECULE	MEASURED QUANTITY	OBSERVED MEASUREMENT
CC(CCN1CCCCc2nc(C)c(C)cc21)=NO[C@@H](C)c1cn([C@H](CO)Cc2ccccc2)nn1	z-score	-0.0001
CO[C@H]1COC(=O)CC=C[C@H](C)[C@@H](OC)COC(=O)[C@@H](C)NC(=O)CC=C[C@@H]1C	z-score	0.0386
CC(=O)OC[C@H]1O[C@H](C#Cc2ccccc2)C=C[C@@H]1OC(C)=O	z-score	-2.17
COC(=O)[C@H](C)NC(=O)CCC1CC(OC(=O)NCCc2ccc(F)cc2)CC2(CCCC(COC(=O)NCc3cccc(C(F)(F)F)c3)O2)O1 (stereo not given in full)	z-score	1.18
CON=C[C@@H](C)[C@H](OCc1ccccc1)C(C)C	z-score	-0.596

Briefly, z-score measured for O=C1OCCC=C1C(O)CCc1ccccc1 (stereo not given) : -0.113

Briefly, z-score measured for `CCOC(=O)CCN1C(=O)[C@H]2[C@H]3[C@H](O)[C@H](O)CC(=NNC(=O)OCc4ccccc4)[C@@H]3CC[C@H]2C1=O` : 0.279

Briefly, z-score measured for `COC(=O)[C@@H]1CC[C@H](C)[C@@H](c2ccc(C)cc2)N1C(=O)c1ccc(C=NOCC[C@@H]2C=C[C@H](OC(C)=O)[C@@H](COC(C)=O)O2)cc1` : 1.58

Briefly, z-score measured for `CC(CCN1CCc2nc(-c3ccccc3)c(-c3ccccc3)cc2C1)=NOC[C@@H](O)[C@H]1O[C@@H]2OC(C)(C)O[C@@H]2[C@H]1O` : -4.63

Briefly, z-score measured for CCOC(=O)[C@H](CC(C)C)NC(=O)CCC1CC(OC(=O)NCc2cccc3ccccc23)CC2(CCCC(COC(=O)NCCc3ccc(Cl)cc3)O2)O1 (stereo not given in full) : -0.858

Briefly, z-score measured for `Cn1c(=O)n2n(c1=O)[C@H]1[C@H](O)[C@@H]3O[C@@H]3C(=NOCc3ccccc3)[C@H]1CC2` : -0.41

Briefly, z-score measured for `CC(C)=CCCC(C)=CCON=C1C[C@@H](O)[C@@H](O)[C@@H]2[C@@H]3C(=O)N(C4CCCCC4)C(=O)[C@@H]3CC[C@@H]12` : -2.8

Briefly, z-score measured for `COc1ccc(COC(=O)NN=C2C[C@@H](O)[C@@H](O)[C@@H]3[C@@H]4C(=O)N(c5ccc(F)cc5F)C(=O)[C@@H]4CC[C@H]23)cc1` : -4.12

Briefly, z-score measured for `COc1ccc(O[C@H]2C=C[C@@H](c3ccccc3)O[C@@H]2CON=C(C)C)cc1` : -2.91

Briefly, z-score measured for `CCCNC(=O)OC[C@H]1O[C@H](CCON=C(C)CCC(=O)OC[C@H]2O[C@H](c3ccccc3)C=C[C@@H]2Oc2ccc(OC)cc2)C=C[C@@H]1Oc1ccc(OC)cc1` : 0.702
